target: human orexin 1 receptors (Homo sapiens, UniProt O43613); experiment: Calcium accumulation in cells (FLIPR), hOx1R; settings: read-out: FLIPR hOx1R % inhibition value
Sequence (O43613 whole entry): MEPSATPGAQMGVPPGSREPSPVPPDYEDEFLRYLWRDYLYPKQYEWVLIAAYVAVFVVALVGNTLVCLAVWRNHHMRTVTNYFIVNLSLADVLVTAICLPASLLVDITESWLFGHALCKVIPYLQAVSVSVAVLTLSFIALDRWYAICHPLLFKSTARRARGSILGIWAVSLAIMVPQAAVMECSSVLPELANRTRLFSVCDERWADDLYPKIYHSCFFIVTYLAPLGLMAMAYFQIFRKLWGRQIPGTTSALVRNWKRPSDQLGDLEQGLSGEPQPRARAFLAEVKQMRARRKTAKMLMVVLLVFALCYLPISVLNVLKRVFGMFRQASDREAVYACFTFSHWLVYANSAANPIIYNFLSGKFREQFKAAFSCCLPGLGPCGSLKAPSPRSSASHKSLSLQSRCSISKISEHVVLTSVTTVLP
inhibition at 10 µM of 30% or higher: YES. Under 30%: NO.

Study these solved cases before continuing.
Task: Please check the record Cc1ccnc(N2CCC3(CCCN(Cc4c[nH]c5ccccc45)C3=O)CC2)c1 and state if its inhibition at 10 µM is at or above 30%.
Output: NO

Task: Check this compound for inhibition at 10 µM at or above 30%: N#Cc1cc(C#N)nc(N2CCC3(CCCN(Cc4c[nH]c5ccccc45)C3=O)CC2)n1
Output: NO

Task: # bool: inhibition at 10 µM of COc1ccc(N2CCC3(CCCN(Cc4c[nH]c5ccccc45)C3=O)CC2)cc1OC >= 30%
Output: NO

Task: Could you please find out whether Cc1ccnc(N2CCC3(CCCC(=O)N3Cc3nnc(-c4ccccc4)o3)CC2)n1 has inhibition at 10 µM that meets 30% or exceeds it?
Output: NO

Task: hey, is inhibition at 10 µM for this one >= 30%? CN(C)c1ccnc(N2CCC3(CCCN(Cc4c[nH]c5ccccc45)C3=O)CC2)n1
Output: NO

---
Task: inhibition at 10 µM >= 30% for Cc1ccnc(N2CCC3(CCCN(Cc4cccc(-c5ncccn5)c4)C3=O)CC2)n1 ?
Output: YES
